# assay_system: T1, monovalent, heterodimeric human ICOS-Fc (human)
# T1 construct: Make-up of the heterodimer is not described; also called Monomeric hICOS; monomeric form of human ICOS; not shown: The human IgG1 Fc fused to ICOS, and the partner Fc chain of the heterodimer
# T1 chain: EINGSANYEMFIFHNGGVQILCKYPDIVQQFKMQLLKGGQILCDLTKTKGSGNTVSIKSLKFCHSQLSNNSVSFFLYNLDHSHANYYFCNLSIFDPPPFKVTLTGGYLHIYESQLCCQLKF
# measurement_notes: BLI (Octet RED96), IgG vs monovalent heterodimeric ICOS-Fc
readout_label: pKd
// pKd is dimensionless: -log10 of concentration (M)

Briefly, pKd measured for 7F12 (antibody, V domains shown, Armenian hamster monoclonal tested as IgG; also called hamster anti-ICOS 7F12) VH: EVQLVESGGGLVKPGGSLTLSCAASGFTFSDYWMDWVRQGPGKGLEWVGNIDEDGSTTYYAPFVKGRFTISRDNAKKTLYLQMNSVKSEDTATYYCTRWGRYAFDSWGQGTLVTVSS VL: DIVMTQSPSSLAVSPGDKVTINCKSSQSLLSGNYNYLAWYQQKTGQAPKLLIFYASTRHTGVPDRFMGSGSGTDFSLTINSFQTEDLGDYYCQHHYSTPPTFGPGTKLEIK : 7.88
